Tested on: U-251
assayMethodText: NCI tumour cell line growth inhibition, 48 h
The source made the active and inactive calls. No stated cut-off is given here; in the data, active = GI50 up to about 1.1 µM and inactive = higher.
Select the correct class. Options are YES for active, NO for inactive and nothing else.

These solved cases illustrate the format of a correct answer.
Exercise: Any idea what this test logged for COc1ccc(-c2cn3c(nc4ccccc43)c(/C=C/c3cccs3)n2)cc1 ?
Solution: NO

Exercise: Any idea what this test logged for Cn1c(=N)n[n+]([O-])c2ccccc21 ?
Solution: NO

Exercise: Any idea what this test logged for O=C1CC(c2ccccc2)Oc2ccccc21 (stereo unspecified) ?
Solution: NO

Exercise: Any idea what this test logged for CC(=O)c1sc(Nc2nnc(-c3ccc(-c4nnc(Nc5nc(C)c(C(C)=O)s5)o4)cc3)o2)nc1C ?
Solution: NO

Exercise: Any idea what this test logged for O=C(O)CC1(CC(=O)O)Nc2ccccc2SC1=O ?
Solution: NO

Exercise: Any idea what this test logged for CCCC(CCC)C(=O)O ?
Solution: NO

Exercise: Any idea what this test logged for O=C(CCCc1ccccn1)c1ccccc1 ?
Solution: NO

Exercise: Any idea what this test logged for N=C(N)NS(=O)(=O)c1ccc(NC(=O)c2ccc3nc4ccccc4c(Nc4ccc(S(N)(=O)=O)cc4)c3c2)cc1 ?
Solution: NO

Here's the next entry for you.
Exercise: Any idea what this test logged for C/C1=C\CC[C@@]2(C)O[C@@H]2[C@H]2OC(=O)C(C)C2C[C@H]1O (stereo partly specified) ?
Solution: NO

====

Test system: Malme-3M
assayMethodText: NCI tumour cell line growth inhibition, 48 h
Activity calls are given as the source filed them. No stated cut-off is given here; in the data, active = GI50 up to about 1.1 µM and inactive = higher.
Select the correct class. Options are active, inactive and nothing else.

These solved cases illustrate the format of a correct answer.
Exercise: Any idea what this test logged for C1=C(c2ccccc2)SC(N2CCCCC2)S1 (configuration not stated) ?
Solution: inactive

Exercise: Any idea what this test logged for CCOC(=O)c1c(SC)nc(-c2ccc(Cl)cc2)sc1=N.[O-][Cl+3]([O-])([O-])O ?
Solution: inactive

Exercise: Any idea what this test logged for O=Cc1ccc(-c2ccc(-c3ccc(C=O)s3)o2)s1 ?
Solution: inactive

Exercise: Any idea what this test logged for OC1(c2ccccc2)C2CC=CC2C1(c1ccccc1)c1ccccc1 (configuration not stated) ?
Solution: inactive

Exercise: Any idea what this test logged for CCCCCCCCCCC/C=C(/C(=O)CCCO[Si](C)(C)C(C)(C)C)C(=O)OC ?
Solution: inactive

Exercise: Any idea what this test logged for O=C(CSCC(=O)N/N=C/c1ccncc1)N/N=C/c1ccncc1 ?
Solution: inactive

Here's the next entry for you.
Exercise: Any idea what this test logged for CC(=O)OC1CC[C@@]2(C)C(=CC[C@@H]3[C@@H]2CC[C@]2(C)C(OC(C)=O)[C@H](n4ccnc4)C[C@@H]32)C1 (some centres not stated) ?
Solution: inactive

====

Kindly supply the reported GI50 values for the records listed here.
Test system: RXF 393
assayMethodText: NCI tumour cell line growth inhibition, 48 h
Structures can show the parent of a compound that is named as a salt. Activity calls are given as the source filed them. Rule as the data show it: active = GI50 up to about 1.1 µM and inactive = higher.

The reported GI50 value, RXF 393, for CC(C)OP(=O)(OC(C)C)C1=NN(c2ccc([N+](=O)[O-])cc2)C(P(=O)(OC(C)C)OC(C)C)=NN1c1ccc([N+](=O)[O-])cc1 reads > 100 µM (inactive)

The reported GI50 value, RXF 393, for C[C@]12CC[C@H](O)CC1=CC[C@@H]1[C@@H]2CC[C@]2(C)C(=O)[C@@H](N3CCOCC3)C[C@@H]12 reads 36.9 µM (inactive)

The reported GI50 value, RXF 393, for FC(F)(F)C1(Br)C(c2ccccc2)=C1c1ccccc1 reads 15.5 µM (inactive)

Now for another entry.
The reported GI50 value, RXF 393, for CNNCc1ccc(C(=O)NC(C)C)cc1 [PROCARBAZINE HYDROCHLORIDE] reads > 423 µM (inactive)
